All figures here come from ChEMBL document CHEMBL4043254.

System: PSN1
Test: Antiausteritic activity against human PSN1 cells in nutrient-deprived medium measured after 24 hrs by WST8 assay
Format: functional
measured_quantity: PC50 (µM)

molecule: CC(=O)OCC1=C[C@@H]2[C@@H](CC1)[C@@](C)(O)CC[C@H]2C(C)C
target_system: PSN1
measured_quantity: PC50
unit_text: µM
lt_gt_eq: >
recorded_result: 100
--
molecule: CC1=C[C@@H]2[C@@H](CC1)[C@](C)(O)CC[C@H]2C(C)C
target_system: PSN1
measured_quantity: PC50
unit_text: µM
lt_gt_eq: >
recorded_result: 100
--
molecule: COc1cc(C[C@H]2C(=O)OC[C@@H]2Cc2ccc(OC)c(OC)c2)ccc1O [ARCTIGENIN]
target_system: PSN1
measured_quantity: PC50
unit_text: µM
lt_gt_eq: =
recorded_result: 0.7
--
molecule: C/C1=C/C(=O)CC[C@@](C)(O)CC[C@@H](C(C)C)C1=O
target_system: PSN1
measured_quantity: PC50
unit_text: µM
lt_gt_eq: =
recorded_result: 67.7
--
molecule: CC(C)[C@@H]1CC[C@](C)(O)[C@@H]2CCC(CO)=C[C@H]21
target_system: PSN1
measured_quantity: PC50
unit_text: µM
lt_gt_eq: =
recorded_result: 50.6
